# experimental_target: PI3Kδ (Homo sapiens, UniProt O00329)
# Construct: p85iSH2(461-568)-GGGGGG-p110δ(2-1044)-His; His (C); made in house; host or cells: baculovirus / Tn5 insect cells
# Sequence (O00329 with tags, fused parts or gaps): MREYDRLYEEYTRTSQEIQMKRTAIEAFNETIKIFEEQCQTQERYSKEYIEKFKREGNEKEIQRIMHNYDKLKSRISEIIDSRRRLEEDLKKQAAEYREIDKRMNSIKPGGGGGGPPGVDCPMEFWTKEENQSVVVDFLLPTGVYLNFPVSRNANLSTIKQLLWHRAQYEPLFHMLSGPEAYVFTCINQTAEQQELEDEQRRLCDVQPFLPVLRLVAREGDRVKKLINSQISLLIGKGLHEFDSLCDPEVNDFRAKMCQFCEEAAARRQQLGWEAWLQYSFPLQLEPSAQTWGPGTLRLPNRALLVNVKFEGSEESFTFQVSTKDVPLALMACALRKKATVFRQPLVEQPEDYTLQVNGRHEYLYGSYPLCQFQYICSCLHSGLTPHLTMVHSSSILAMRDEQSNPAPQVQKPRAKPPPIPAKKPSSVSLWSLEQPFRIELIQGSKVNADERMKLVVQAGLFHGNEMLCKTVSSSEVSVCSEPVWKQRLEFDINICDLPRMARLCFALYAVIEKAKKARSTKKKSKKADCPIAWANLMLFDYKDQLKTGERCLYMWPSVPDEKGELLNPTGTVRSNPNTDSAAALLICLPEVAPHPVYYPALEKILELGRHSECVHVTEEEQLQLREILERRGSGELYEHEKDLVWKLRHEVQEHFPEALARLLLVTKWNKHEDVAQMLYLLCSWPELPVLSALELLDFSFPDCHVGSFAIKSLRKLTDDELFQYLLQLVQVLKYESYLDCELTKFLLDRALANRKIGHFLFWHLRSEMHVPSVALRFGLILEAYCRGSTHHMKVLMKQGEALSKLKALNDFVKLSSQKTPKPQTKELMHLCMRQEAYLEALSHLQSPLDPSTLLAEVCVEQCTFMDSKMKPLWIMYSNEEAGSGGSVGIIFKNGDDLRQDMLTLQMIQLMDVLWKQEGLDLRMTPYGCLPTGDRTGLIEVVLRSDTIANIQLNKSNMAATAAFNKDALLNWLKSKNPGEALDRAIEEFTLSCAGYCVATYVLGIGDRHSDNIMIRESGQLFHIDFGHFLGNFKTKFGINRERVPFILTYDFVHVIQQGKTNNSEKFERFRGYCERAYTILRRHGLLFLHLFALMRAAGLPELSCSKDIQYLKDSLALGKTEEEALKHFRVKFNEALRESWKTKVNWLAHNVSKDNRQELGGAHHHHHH
# method_description: PI3K KinaseGlo assay, PI3Kdelta
# Format: biochemical
# condition_notes: selectivity factor: PI3Kdelta IC50 divided by PI3Kalpha IC50
quantity: PI3Kdelta (selectivity)

• Cc1nc(NC(=O)N2CC[C@@H](CN3CCOCC3)[C@H]2C(N)=O)sc1-c1ccnc(C2(C)CC2)c1 = (5)
• [2H]C([2H])([2H])C(c1nccc(-c2sc(NC(=O)N3CC[C@@H](C)[C@H]3C(N)=O)nc2C)n1)(C([2H])([2H])[2H])C([2H])([2H])[2H] = (7)
• CC(=O)NC[C@@H]1CCN(C(=O)Nc2nc(C)c(-c3ccnc(C(C)(C)C(F)(F)F)c3)s2)[C@@H]1C(N)=O = (52)

Each recorded value in this set is attributed to patent US8293753B2.
